These measurements were taken from patent US20050227220A1.

Biological target: T1, RXRα ligand binding domain (amino acids 225-462) (UniProt P19793 225-462)
T1 construct: range 225-462; Biotinylated for FRET; also called RXRα LBD; not shown: His-tag
T1 sequence (looked up): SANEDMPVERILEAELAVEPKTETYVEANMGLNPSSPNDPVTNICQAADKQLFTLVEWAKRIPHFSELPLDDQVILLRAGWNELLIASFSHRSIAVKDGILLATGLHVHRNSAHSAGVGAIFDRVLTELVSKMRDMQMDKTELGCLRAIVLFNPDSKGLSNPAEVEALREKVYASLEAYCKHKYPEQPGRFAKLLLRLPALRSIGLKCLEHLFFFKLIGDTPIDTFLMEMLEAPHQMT
Test: fluorescence polarization, 10 nM fluorescein peptide, LBD titrated, no ligand
Primed or numbered codes have the meaning given here. No end group written: not given here. fluorescein = fluorescein: fluorescein label attached at the N-terminus of the peptide; fluorescein″ = fluorescein label attached to the peptide N-terminus
recorded-endpoint: pKd
Please note pKd is a logarithmic value: minus log10 of concentration in mol/L. Answer with that number alone.

binder	pKd
{fluorescein″}-TNMGLEAIIFKALMGKYDQWEE [Fluoroscein-SMRT ID-C peptide]	4.70

Request: Data request, read-out pKd, for fluorescein-GHSFADPASNLGLEDIIRKALMGSF (also called NCOR peptide; NCoR 2251-2275) [Fluoroscein-NCOR ID-C peptide (NCoR amino acids 2251-2275)]
Result: 4.60
